FYI, the data here is from patent US20070178531A1.

Target: T1, Mouse Id1: Histidine (mouse, UniProt P20067-2 1-148, limits assumed)
T1 construct: Fusion protein made in E. coli from vector pGW07; also called m-Id1-His; not shown: His tag
T1 sequence (looked up): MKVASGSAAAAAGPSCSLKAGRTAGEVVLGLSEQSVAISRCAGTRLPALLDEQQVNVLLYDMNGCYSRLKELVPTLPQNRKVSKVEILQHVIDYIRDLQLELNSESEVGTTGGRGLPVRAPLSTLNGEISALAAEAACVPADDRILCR
Assay: ELISA, Ab 0.005 µg/ml
MEASURE NAME: A450 (A450)
Reply numerically in A450, unit not repeated.

Given the entry rabbit monoclonal anti-mouse/human Id3, clone #BCH-4/#16-1 (antibody, V domains shown, Rabbit IgG from a rabbit hybridoma; also called m/h Id3 MoAb 16-1) VH: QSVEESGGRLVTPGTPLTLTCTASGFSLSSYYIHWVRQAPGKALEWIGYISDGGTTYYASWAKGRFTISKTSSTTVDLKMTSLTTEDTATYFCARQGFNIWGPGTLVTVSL VL: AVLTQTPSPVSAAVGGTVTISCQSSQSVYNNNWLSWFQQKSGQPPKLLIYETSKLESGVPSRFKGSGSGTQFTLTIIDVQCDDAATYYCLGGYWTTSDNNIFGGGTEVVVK , report its measured A450.
0.046

Reported A450 for rabbit monoclonal anti-human Id3, clone #BCH-4/#3-3 (antibody, V domains shown, Rabbit IgG from a rabbit hybridoma; also called h Id3 MoAb 3-3) VH: QSVEESGGRLVTPGTPLTLTCTVSGIDLSSYAMSWVRQAPGKGLEWIGVIFPSNNVYYASWAKGRFTISKTSTTVDLKITSPTTEDTATYFCASMGAFDSWGPGTLVTVSS VL: QVLTQTPSPVSAAVGGTVTINCQASQSIYNDNDLAWFQQKPGQPPKLLIYDASTLTSGVPSRFKGSGSGTQFTLTISDLDCDDAATYYCAARYSGNIYGFGGGTEVVVK : what is it?
0.044

Query (binder): rabbit monoclonal anti-mouse/human Id3, clone #BCH-4/#17-3 (antibody, V domains shown, Rabbit IgG from a rabbit hybridoma; also called m/h Id3 MoAb 17-3; BCH-3/#17-3) VH: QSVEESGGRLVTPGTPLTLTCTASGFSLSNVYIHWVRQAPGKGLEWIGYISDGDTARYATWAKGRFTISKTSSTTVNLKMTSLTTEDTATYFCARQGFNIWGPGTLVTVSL VL: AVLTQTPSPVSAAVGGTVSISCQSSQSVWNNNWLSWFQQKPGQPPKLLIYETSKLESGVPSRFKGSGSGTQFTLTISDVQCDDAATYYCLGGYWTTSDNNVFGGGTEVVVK ; field requested: A450
0.048
